Target: AChE (Homo sapiens)
Sequence (P22303 32-614): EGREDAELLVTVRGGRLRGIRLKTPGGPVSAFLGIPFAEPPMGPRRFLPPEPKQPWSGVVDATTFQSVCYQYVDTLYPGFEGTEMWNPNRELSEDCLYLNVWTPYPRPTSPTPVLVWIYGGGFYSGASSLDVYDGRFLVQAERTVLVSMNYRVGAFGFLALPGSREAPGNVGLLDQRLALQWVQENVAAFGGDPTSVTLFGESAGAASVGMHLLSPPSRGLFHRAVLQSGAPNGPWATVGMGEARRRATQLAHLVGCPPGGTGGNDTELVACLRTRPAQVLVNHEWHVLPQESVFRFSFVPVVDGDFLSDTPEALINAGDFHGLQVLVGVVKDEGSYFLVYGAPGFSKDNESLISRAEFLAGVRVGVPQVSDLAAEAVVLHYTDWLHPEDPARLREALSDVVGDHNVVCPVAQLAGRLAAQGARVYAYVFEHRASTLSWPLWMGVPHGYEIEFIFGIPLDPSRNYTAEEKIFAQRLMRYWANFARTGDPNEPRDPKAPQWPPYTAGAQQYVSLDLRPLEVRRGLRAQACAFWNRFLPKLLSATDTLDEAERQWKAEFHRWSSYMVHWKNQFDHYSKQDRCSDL
Assay: biochemical
Type: biochemical
experimental_endpoint: Inhibition Rate (%) AChE
Give the value, in units of %, as a plain number.

chemical_structure	system_name	Inhibition Rate (%) AChE
COc1ccc2nc(NC(=O)CN3CCc4ccccc4[C@H]3c3ccccc3)sc2c1	AChE (Homo sapiens)	3.31

Incoming: Give Inhibition Rate (%) AChE (AChE (Homo sapiens)) of the following molecule: `O=C(CN1CCc2ccccc2[C@H]1c1ccccc1)Nc1nc2ccc([N+](=O)[O-])cc2s1`
Outgoing: 2.76

Incoming: Give Inhibition Rate (%) AChE (AChE (Homo sapiens)) of the following molecule: `O=C(CN1CCc2ccccc2[C@H]1c1ccccc1)Nc1nc2c(Br)cccc2s1`
Outgoing: 0.55

Incoming: Give Inhibition Rate (%) AChE (AChE (Homo sapiens)) of the following molecule: `O=C(CN1CCc2ccccc2[C@H]1c1ccccc1)Nc1nc2cc(Br)ccc2s1`
Outgoing: 4.97

Incoming: Give Inhibition Rate (%) AChE (AChE (Homo sapiens)) of the following molecule: `O=C(CN1CCc2ccccc2[C@H]1c1ccccc1)Nc1nc2c(Cl)cc(Cl)cc2s1`
Outgoing: 3.87

Incoming: Give Inhibition Rate (%) AChE (AChE (Homo sapiens)) of the following molecule: `O=C(CN1CCc2ccccc2[C@H]1c1ccccc1)Nc1nc2c(Br)cc(Br)cc2s1`
Outgoing: 6.63

Incoming: Give Inhibition Rate (%) AChE (AChE (Homo sapiens)) of the following molecule: `COc1cccc2sc(NC(=O)CN3CCc4ccccc4[C@H]3c3ccccc3)nc12`
Outgoing: 12.71

Incoming: Give Inhibition Rate (%) AChE (AChE (Homo sapiens)) of the following molecule: `O=C(CN1CCc2ccccc2[C@H]1c1ccccc1)Nc1nc2c(Cl)cccc2s1`
Outgoing: 6.08

====

IC50 listing for selected compounds.
Biological target: BuChE (Homo sapiens)
Give the value, in units of µM, as a plain number.

chemical_structure	result_unit	value
Cc1ccc2nc(NC(=O)CN3CCc4ccccc4[C@H]3c3ccccc3)sc2c1	µM	19.2
O=C(CN1CCc2ccccc2[C@H]1c1ccccc1)Nc1nc2c(Cl)cc(Cl)cc2s1	µM	21.8

Incoming: Give IC50 (BuChE (Homo sapiens)) of the following compound: `O=C(CN1CCc2ccccc2[C@H]1c1ccccc1)Nc1nc2cc(Br)ccc2s1`
Outgoing: 18.3

Incoming: Give IC50 (BuChE (Homo sapiens)) of the following compound: `COc1ccc2sc(NC(=O)CN3CCc4ccccc4[C@H]3c3ccccc3)nc2c1`
Outgoing: 10.2

Incoming: Give IC50 (BuChE (Homo sapiens)) of the following compound: `Cc1cccc2sc(NC(=O)CN3CCc4ccccc4[C@H]3c3ccccc3)nc12`
Outgoing: 30.3

Incoming: Give IC50 (BuChE (Homo sapiens)) of the following compound: `COc1ccc2nc(NC(=O)CN3CCc4ccccc4[C@H]3c3ccccc3)sc2c1`
Outgoing: 3.86

====

Tested on: ICR male mice
Assay: Forced swimming test (FST)
Format: in vivo
Settings: i.p., 30 mg/kg, 30 min after administration, mean ± SEM (n = 8)
Duration of Immobility listing for selected molecules.
Give the value, in units of s, as a plain number.

See these solved cases before continuing.
molecule	value
O=C(CN1CCc2ccccc2[C@H]1c1ccccc1)Nc1nc2ccc(Br)cc2s1 [Compound 4f]	71.7
O=C(CN1CCc2ccccc2[C@H]1c1ccccc1)Nc1nc2c(Br)cccc2s1 [Compound 4d]	62.3
CNCCC(Oc1ccc(C(F)(F)F)cc1)c1ccccc1 (stereo not shown) [Fluoxetine, reference compound]	31.7

Incoming: Give Duration of Immobility (ICR male mice) of the following molecule: Cc1ccc2nc(NC(=O)CN3CCc4ccccc4[C@H]3c3ccccc3)sc2c1 [Compound 4i]
Outgoing: 83.8

Incoming: Give Duration of Immobility (ICR male mice) of the following molecule: O=C(CN1CCc2ccccc2[C@H]1c1ccccc1)Nc1nc2ccc(Cl)cc2s1 [Compound 4c]
Outgoing: 77.0

Incoming: Give Duration of Immobility (ICR male mice) of the following molecule: O=C(CN1CCc2ccccc2[C@H]1c1ccccc1)Nc1nc2cc(Cl)ccc2s1 [Compound 4b]
Outgoing: 85.7

Incoming: Give Duration of Immobility (ICR male mice) of the following molecule: Cc1cccc2sc(NC(=O)CN3CCc4ccccc4[C@H]3c3ccccc3)nc12 [Compound 4g]
Outgoing: 69.0

====

Target: MAO
Experiment: MAO inhibitory activity (Holts method, rat liver mitochondrial enzyme)
experimental_endpoint: IC50 (µM)
Give the value, in units of µM, as a plain number.

chemical_structure	IC50 [µM]
O=C(CN1CCc2ccccc2[C@H]1c1ccccc1)Nc1nc2cc(Cl)ccc2s1	38.8
COc1ccc2nc(NC(=O)CN3CCc4ccccc4[C@H]3c3ccccc3)sc2c1	76.3
O=C(CN1CCc2ccccc2[C@H]1c1ccccc1)Nc1nc2c(Br)cc(Br)cc2s1	59.3

Incoming: Please look up its IC50: `Cc1cccc2sc(NC(=O)CN3CCc4ccccc4[C@H]3c3ccccc3)nc12`
Outgoing: 14.8

Incoming: Please look up its IC50: `Cc1ccc2nc(NC(=O)CN3CCc4ccccc4[C@H]3c3ccccc3)sc2c1`
Outgoing: 18.5

Incoming: Please look up its IC50: `O=C(CN1CCc2ccccc2[C@H]1c1ccccc1)Nc1nc2ccc(Cl)cc2s1`
Outgoing: 45.9

Incoming: Please look up its IC50: `O=C(CN1CCc2ccccc2[C@H]1c1ccccc1)Nc1nc2c(Br)cccc2s1`
Outgoing: 64.8

Incoming: Please look up its IC50: `O=C(CN1CCc2ccccc2[C@H]1c1ccccc1)Nc1nc2ccc(Br)cc2s1`
Outgoing: 41.8

====

Molecular target: MAO–B (Rattus norvegicus, UniProt P19643)
Construct: the obtained SD rat liver mitochondrial concentrate was the experimental monoamine oxidase stock solution; from tissue; host or cells: male SD rat liver mitochondria
Sequence (P19643 1-520): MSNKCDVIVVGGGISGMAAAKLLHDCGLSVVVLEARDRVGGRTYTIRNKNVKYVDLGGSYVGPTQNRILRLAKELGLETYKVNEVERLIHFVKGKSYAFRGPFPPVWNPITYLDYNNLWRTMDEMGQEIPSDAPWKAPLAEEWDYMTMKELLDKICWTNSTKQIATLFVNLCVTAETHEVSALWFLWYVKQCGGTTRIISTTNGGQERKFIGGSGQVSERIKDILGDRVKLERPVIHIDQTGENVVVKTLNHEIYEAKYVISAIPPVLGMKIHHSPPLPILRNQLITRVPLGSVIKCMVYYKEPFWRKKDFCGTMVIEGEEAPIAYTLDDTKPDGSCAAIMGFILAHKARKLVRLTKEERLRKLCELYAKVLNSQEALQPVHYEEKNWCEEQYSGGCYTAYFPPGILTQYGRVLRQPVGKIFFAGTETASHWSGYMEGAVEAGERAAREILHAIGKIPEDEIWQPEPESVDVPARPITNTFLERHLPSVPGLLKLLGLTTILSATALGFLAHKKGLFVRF
Assay: MAO–B inhibitory activity (enzyme pre-incubated with chlorgiline)
Type: biochemical
Inhibition Rate (%) MAO–B listing for selected molecules.
Give the value, in units of %, as a plain number.

Incoming: Please look up its Inhibition Rate (%) MAO–B: `O=C(CN1CCc2ccccc2[C@H]1c1ccccc1)Nc1nc2c(Br)cccc2s1`
Outgoing: 46.00

Incoming: Please look up its Inhibition Rate (%) MAO–B: C#CCN(C)Cc1ccccc1 [Pargyline, reference compound]
Outgoing: 93.47

Incoming: Please look up its Inhibition Rate (%) MAO–B: `O=C(CN1CCc2ccccc2[C@H]1c1ccccc1)Nc1nc2cc(Cl)ccc2s1`
Outgoing: 39.15

====

Target: BuChE (Homo sapiens, UniProt P06276)
Sequence (P06276 29-602): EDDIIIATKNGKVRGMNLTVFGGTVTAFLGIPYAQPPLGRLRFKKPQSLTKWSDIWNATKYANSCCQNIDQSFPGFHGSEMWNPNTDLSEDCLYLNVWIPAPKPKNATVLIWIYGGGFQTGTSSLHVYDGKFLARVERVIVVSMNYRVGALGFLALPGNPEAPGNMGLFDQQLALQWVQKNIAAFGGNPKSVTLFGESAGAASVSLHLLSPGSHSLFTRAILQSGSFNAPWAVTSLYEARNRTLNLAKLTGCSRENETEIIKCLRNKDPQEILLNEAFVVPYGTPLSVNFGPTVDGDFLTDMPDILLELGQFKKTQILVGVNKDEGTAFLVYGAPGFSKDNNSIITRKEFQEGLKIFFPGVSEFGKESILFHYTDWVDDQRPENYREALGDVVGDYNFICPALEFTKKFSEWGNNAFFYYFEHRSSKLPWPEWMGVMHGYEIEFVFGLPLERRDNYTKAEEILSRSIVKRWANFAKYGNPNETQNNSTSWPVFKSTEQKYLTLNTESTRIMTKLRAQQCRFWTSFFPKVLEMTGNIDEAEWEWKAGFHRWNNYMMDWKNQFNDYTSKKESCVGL
Experiment: biochemical
Format: biochemical
experimental_endpoint: Inhibition Rate (%) BuChE
Give the value, in units of %, as a plain number.

compound	system_name	Inhibition Rate (%) BuChE
O=C(CN1CCc2ccccc2[C@H]1c1ccccc1)Nc1nc2ccc(Cl)cc2s1 [Compound 4c]	BuChE (Homo sapiens, UniProt P06276)	68.80
Cc1ccc2sc(NC(=O)CN3CCc4ccccc4[C@H]3c3ccccc3)nc2c1 [Compound 4h]	BuChE (Homo sapiens, UniProt P06276)	37.44

Incoming: Please look up its Inhibition Rate (%) BuChE: O=C(CN1CCc2ccccc2[C@H]1c1ccccc1)Nc1nc2ccc(F)cc2s1 [Compound 4m]
Outgoing: 22.33

Incoming: Please look up its Inhibition Rate (%) BuChE: O=C(CN1CCc2ccccc2[C@H]1c1ccccc1)Nc1nc2c(Cl)cc(Cl)cc2s1 [Compound 4o]
Outgoing: 52.16

Incoming: Please look up its Inhibition Rate (%) BuChE: Cc1ccc2nc(NC(=O)CN3CCc4ccccc4[C@H]3c3ccccc3)sc2c1 [Compound 4i]
Outgoing: 47.68

Incoming: Please look up its Inhibition Rate (%) BuChE: O=C(CN1CCc2ccccc2[C@H]1c1ccccc1)Nc1nc2cc(Br)ccc2s1 [Compound 4e]
Outgoing: 68.80

Incoming: Please look up its Inhibition Rate (%) BuChE: COc1cccc2sc(NC(=O)CN3CCc4ccccc4[C@H]3c3ccccc3)nc12 [Compound 4j]
Outgoing: 51.52

Incoming: Please look up its Inhibition Rate (%) BuChE: O=C(CN1CCc2ccccc2[C@H]1c1ccccc1)Nc1nc2ccc(Br)cc2s1 [Compound 4f]
Outgoing: 32.32
